- System: Strain 5150
- Assay Procedure: Inhibition of proliferation of multi-resistant field isolates, asynchronous asexual stages, SYBR-green assay
- Assay type: cell-based, P. falciparum
- Assay Conditions: Plasmodium falciparum, 72 h, read-out: IC50 nM Strain 5150 mean*
Can you tell me IC50 for the items I'm about to list?
Kindly write the number and append the unit.

Working through the 2 compounds below one at a time, give IC50 for each.
1. CCN(CC)CCCC(C)Nc1ccnc2cc(Cl)ccc12 (centres unmarked) [Chloroquine]
2. Clc1ccc2c(N3CCN(CCCN4CCN(c5ccnc6cc(Cl)ccc56)CC4)CC3)ccnc2c1 [Piperaquine]

Result:
55 nM
26 nM

###

- System: P. falciparum NF54 (drug-sensitive line)
- Assay Procedure: Inhibition of proliferation of asynchronous asexual cultures (SYBR Green I based assay, 72h)
- Type: cell-based
- Assay Conditions: Plasmodium falciparum, NF54, 72 h, SYBR Green I; read-out: Malaria CI50
Value Type: pIC50
Numbers only, as −log10 of the molar value.

Here is how some compounds turned out for pIC50.
- Compound: "COc1cc2c3c4c1Oc1cc5c(cc1O4)C(Cc1ccc(OCCCN4CCN(C)CC4)c(c1)Oc1ccc(cc1)CC3N(C)CC2)N(C)CC5 (stereo not shown)"
  Tested System: "P. falciparum NF54 (drug-sensitive line)"
  Quantitative Result: 6.72
- Compound: "COc1ccc2cc1Oc1ccc(cc1)CC1c3c(cc(OC)c4c3Oc3cc5c(cc3O4)CCN(C(=O)Nc3ccncc3)C5C2)CCN1C (stereo not shown)"
  Tested System: "P. falciparum NF54 (drug-sensitive line)"
  Quantitative Result: 6.65
- Compound: "CN(C)CCCOc1ccc2cc1Oc1ccc(cc1)CC1c3c(cc(O)c4c3Oc3cc5c(cc3O4)CCN(C)C5C2)CCN1C (stereo not shown)"
  Tested System: "P. falciparum NF54 (drug-sensitive line)"
  Quantitative Result: 6.82

Working through the 5 compounds below one at a time, give pIC50 for each.
1. COc1cc2c3c4c1Oc1cc5c(cc1O4)C(Cc1ccc(OCCC4CCCN4C)c(c1)Oc1ccc(cc1)CC3N(C)CC2)N(C)CC5 (stereo not shown)
2. COc1ccc2cc1Oc1ccc(cc1)CC1c3c(cc(OC)c4c3Oc3cc5c(cc3O4)CCN(CCOCCOCCO)C5C2)CCN1C (stereo not shown)
3. COc1ccc2cc1Oc1ccc(cc1)CC1c3c(cc(OC)c4c3Oc3cc5c(cc3O4)CCN(C(=O)NCCN3CCN(C)CC3)C5C2)CCN1C (stereo not shown)
4. CCN(CC)CCOc1ccc2cc1Oc1ccc(cc1)CC1c3c(cc(OC)c4c3Oc3cc5c(cc3O4)CCN(C)C5C2)CCN1C (stereo not shown)
5. COc1cc2c3c4c1Oc1cc5c(cc1O4)C(Cc1ccc(OCC4CO4)c(c1)Oc1ccc(cc1)CC3N(C)CC2)N(C)CC5 (stereo not shown)

Result:
1: 6.45; 2: 6.36; 3: 6.64; 4: 6.48; 5: 6.52

Working through the 3 compounds below one at a time, give pIC50 for each.
1. CN(C)Cc1cc2cc(c1O)Oc1ccc(cc1)CC1c3c(c(CN(C)C)c(O)c4c3Oc3cc5c(cc3O4)CCN(C)C5C2)CCN1C (stereo not shown)
2. COc1ccc2cc1Oc1ccc(cc1)CC1c3c(cc(OC)c4c3Oc3cc5c(cc3O4)CCN(C)C5C2)CCN1C(=O)NCc1ccccc1 (stereo not shown)
3. CCN(CC)CCCNC(=O)N1CCc2cc3c4cc2C1Cc1ccc(OC)c(c1)Oc1ccc(cc1)CC1c2c(cc(OC)c(c2O4)O3)CCN1C (stereo not shown)

Result:
1. 6.55
2. 6.30
3. 6.53

Working through the 2 compounds below one at a time, give pIC50 for each.
1. COc1cc2c3c4c1Oc1cc5c(cc1O4)C(Cc1ccc(OCCCN(C)C)c(c1)Oc1ccc(cc1)CC3N(C)CC2)N(C)CC5 (stereo not shown)
2. CCN(CC)CCCNC(=O)N1CCc2cc(OC)c3c4c2C1Cc1ccc(cc1)Oc1cc(ccc1OC)CC1c2cc(c(cc2CCN1C)O3)O4 (stereo not shown)

Result:
6.89
6.37
